All values here come from patent US7566722B2.

# Lookup of reported IC50 keyed by entry
# TEST_TARGET: ADP P2Y12 receptor (Homo sapiens, UniProt Q9H244)
# Construct: expressed in transfected cells
# Sequence (Q9H244 whole entry): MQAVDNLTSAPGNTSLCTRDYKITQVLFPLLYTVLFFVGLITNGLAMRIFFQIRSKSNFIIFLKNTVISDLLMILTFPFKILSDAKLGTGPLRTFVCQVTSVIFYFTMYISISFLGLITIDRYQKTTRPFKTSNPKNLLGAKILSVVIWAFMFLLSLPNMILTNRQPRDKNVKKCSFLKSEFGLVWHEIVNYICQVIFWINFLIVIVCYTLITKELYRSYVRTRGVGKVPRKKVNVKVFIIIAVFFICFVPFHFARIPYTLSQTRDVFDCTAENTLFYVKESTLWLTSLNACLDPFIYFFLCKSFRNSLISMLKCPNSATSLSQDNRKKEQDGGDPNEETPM
# TEST_SUMMARY: FLIPR calcium assay transducing Gi-coupled signaling to the Gq pathway (inhibition of ADP-induced calcium mobilization)
# Assay type: cell-based
# EXPERIMENTAL_CONTEXT: HEK 293 cells co-transfected with P2Y12 and Gqi5, ADP at EC60-70 dose

| MOLECULE | CENSORING_QUALIFIER | IC50 / µM |
| --- | --- | --- |
| CCCSc1nc(N[C@@H]2C[C@H]2c2ccccc2)c2nnn([C@@H]3C[C@H](c4nnc(C)[nH]4)[C@@H](O)[C@H]3O)c2n1 (mixture of isomers) | = | 0.265 |
| CCCSc1nc(NCC2CC2)c2nnn([C@@H]3C[C@H](c4nnn[nH]4)[C@@H](O)[C@H]3O)c2n1 | = | 0.542 |
| CCCSc1nc(N[C@@H]2C[C@H]2c2ccccc2)c2nnn([C@@H]3C[C@H](c4nnc[nH]4)[C@@H](O)[C@H]3O)c2n1 (mixture of isomers) | = | 0.155 |
| CCCSc1nc(NC[C@@H](C)c2ccccc2)c2nnn([C@@H]3C[C@H](c4nnc(C)[nH]4)[C@@H](O)[C@H]3O)c2n1 | > | 30 |
| CCCCNc1nc(SCCC)nc2c1nnn2[C@@H]1C[C@H](c2nnn[nH]2)[C@@H](O)[C@H]1O | = | 0.045 |
| CCCSc1nc(NC[C@H](C)c2ccccc2)c2nnn([C@@H]3C[C@H](c4nnc(C)[nH]4)[C@@H](O)[C@H]3O)c2n1 | > | 30 |
| CCCSc1nc(NCC(F)(F)F)c2nnn([C@@H]3C[C@H](c4nnc(C)[nH]4)[C@@H](O)[C@H]3O)c2n1 | > | 30 |
| CCCSc1nc(N[C@@H]2C[C@H]2c2ccccc2)c2nnn([C@@H]3C[C@H](Cn4ccnc4)[C@@H](O)[C@H]3O)c2n1 (mixture of isomers) | = | 0.805 |
| CCCSc1nc(N[C@@H]2C[C@H]2c2ccccc2)c2nnn([C@@H]3C[C@H](Cn4cnnn4)[C@@H](O)[C@H]3O)c2n1 (mixture of isomers) | = | 0.799 |
| CCCSc1nc(NCC(F)(F)F)c2nnn([C@@H]3C[C@H](c4nnn[nH]4)[C@@H](O)[C@H]3O)c2n1 | = | 3.12 |

###

# TEST_TARGET: P2Y12 receptor (Homo sapiens, UniProt Q9H244)
# Construct: expressed in transfected cells
# Sequence (Q9H244 whole entry): as above
# TEST_SUMMARY: Whole cell receptor binding assay, 2-MeS[3H]-ADP
# EXPERIMENTAL_CONTEXT: HEK 293 cells stably transfected with P2Y12; 2-MeS[3H]-ADP 3 nM; 30 min at 37° C.; read-out: Inhibition of Receptor Binding (IC50 μM)
MEASURED_METRIC: IC50 (µM)

| COMPOUND | MEASURED_METRIC | NUMERIC_VALUE |
| --- | --- | --- |
| CCCSc1nc(N[C@@H]2C[C@H]2c2ccccc2)c2nnn([C@@H]3C[C@H](c4nnc(C)[nH]4)[C@@H](O)[C@H]3O)c2n1 (mixture of isomers) [Cpd 14] | IC50 | 0.735 |
| CCCSc1nc(NCCSC)c2nnn([C@@H]3C[C@H](c4nnc(C)[nH]4)[C@@H](O)[C@H]3O)c2n1 [Cpd 19] | IC50 | 5.09 |
| CCCSc1nc(N[C@H]2C[C@@H]2c2ccccc2)c2nnn([C@@H]3C[C@H](c4nnn[nH]4)[C@@H](O)[C@H]3O)c2n1 [Cpd 23] | IC50 | 0.061 |
| CCCCNc1nc(SCCC)nc2c1nnn2[C@@H]1C[C@H](c2nnc[nH]2)[C@@H](O)[C@H]1O [Cpd 20] | IC50 | 0.422 |
| CCCSc1nc(N[C@@H]2C[C@H]2c2ccccc2)c2nnn([C@@H]3C[C@H](c4nnc[nH]4)[C@@H](O)[C@H]3O)c2n1 (mixture of isomers) [Cpd 21] | IC50 | 0.0659 |
| CCCSc1nc(NC[C@@H](C)c2ccccc2)c2nnn([C@@H]3C[C@H](c4nnc(C)[nH]4)[C@@H](O)[C@H]3O)c2n1 [Cpd 16] | IC50 | 3.88 |
